- measurement target: T1, human vascular endothelial growth factor receptor-2 Fc chimera (KDR-Fc) (human, UniProt P35968 20-764)
- T1 construct: range 1-764; Purchased from R&D Systems; also called hKDR; human VEGF-R2-Fc; not shown: human IgG1 Fc
- T1 sequence (P35968 20-764 limits assumed, change not shown, form in doubt): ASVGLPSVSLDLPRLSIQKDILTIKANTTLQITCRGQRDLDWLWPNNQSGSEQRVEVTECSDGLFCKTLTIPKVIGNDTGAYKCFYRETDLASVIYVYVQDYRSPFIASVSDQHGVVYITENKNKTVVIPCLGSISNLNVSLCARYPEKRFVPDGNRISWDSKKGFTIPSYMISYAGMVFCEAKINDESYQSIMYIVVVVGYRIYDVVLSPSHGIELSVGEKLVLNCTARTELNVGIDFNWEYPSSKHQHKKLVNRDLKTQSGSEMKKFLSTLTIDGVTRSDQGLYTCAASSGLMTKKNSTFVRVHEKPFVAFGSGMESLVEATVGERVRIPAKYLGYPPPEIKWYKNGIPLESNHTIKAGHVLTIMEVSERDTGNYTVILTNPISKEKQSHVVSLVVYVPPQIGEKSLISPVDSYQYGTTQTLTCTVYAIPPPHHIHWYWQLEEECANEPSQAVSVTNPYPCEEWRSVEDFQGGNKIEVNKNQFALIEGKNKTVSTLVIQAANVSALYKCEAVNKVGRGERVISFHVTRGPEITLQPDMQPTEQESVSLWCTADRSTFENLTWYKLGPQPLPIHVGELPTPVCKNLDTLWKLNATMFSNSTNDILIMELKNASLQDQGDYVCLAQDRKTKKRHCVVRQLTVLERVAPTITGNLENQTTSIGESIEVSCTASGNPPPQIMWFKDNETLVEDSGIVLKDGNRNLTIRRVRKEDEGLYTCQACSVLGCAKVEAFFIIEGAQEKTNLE
- experiment: radioactive equilibrium binding, 1 nM KDR-Fc
Answer each item with its documented Binding to 1 nM KDR, %.
I only need the number, in %, no unit after it.

[ask] Supply measured Binding to 1 nM KDR, % of 2′A1-PR4 (designed binder, in vitro translated) VSDVPRDLEVVAATPTSLLISWRHPHFPTRYYRITYGETGGNSPVQEFTVPLQPPTATISGLKPGVDYTITVYAVTSGHNDHMLMIPISINYRT in your reply.
[reply] 11

[ask] Supply measured Binding to 1 nM KDR, % of 2′DelB10 PR4 (designed binder, in vitro translated) EVVAATPTSLLISWRHPHFPTRYYRITYGETGGNSPVQEFTVPLQPPTATISGLKPGVDYTITVYAVTVTHNDHELLTPISINYRT in your reply.
[reply] 11

[ask] Supply measured Binding to 1 nM KDR, % of 3D4 PR3 (designed binder, in vitro translated) EVVAATPTSLLISWRHPHFPTRYYRITYGETGGNSPVQEFTVPLQPPTATISGLKPGVDYTITVYAVTVGWNDHELITPISINYRT in your reply.
[reply] 10

[ask] Supply measured Binding to 1 nM KDR, % of 1′DelH9 PR4 (designed binder, in vitro translated) EVVAATPTSLLISWRHPHFPTRYYRITYGETGGNSPVQEFTVPLQPPTATISGLKPGVDYTITVYAVTVGQNDHELITPISINYRT in your reply.
[reply] 10

[ask] Supply measured Binding to 1 nM KDR, % of 3F11 PR3 (designed binder, in vitro translated) EVVAATPTSLLISWRHPHFPTRYYRITYGETGGNSPVQEFTVPLQPPTATISGLKPGVDYTITVYAVTVGLTDHVLLTPISINYRT in your reply.
[reply] 10

[ask] Supply measured Binding to 1 nM KDR, % of 2H10 PR3 (designed binder, in vitro translated) VSDVPRDLEVVAATPTSLLISWRHPHFPTRYYRITYGETGGNSPVQEFTVPLQPPTATISGLKPGVDYTITVYAVTLAPSARELMTPISINYRT in your reply.
[reply] 10

[ask] Supply measured Binding to 1 nM KDR, % of 4′G8 PR4 (designed binder, in vitro translated) EVVAATPTSLLISWRHPHFPTRYYRITYGETGGNSPVQEFTVPLQPPTATISGLKPGVDYTITVYAVTVAQNGHELLTPISINYRT in your reply.
[reply] 13

[ask] Supply measured Binding to 1 nM KDR, % of 4A4 PR3 (designed binder, in vitro translated) EVVAATPTSLLISWRHPHFPTRYYRITYGETGGNSPVQEFTVPLQPPTATISGLKPGVDYTITVYAVTVAQNDHELFTPISINYRT in your reply.
[reply] 10

[ask] Supply measured Binding to 1 nM KDR, % of 3′D4 PR4 (designed binder, in vitro translated) EVVAATPTSLLISWRHPHFPTRYYRITYGETGGNSPVQEFTVPLQPPTATISGLKPGVDYTITVYAVTLAHNDRELITPISINYRT in your reply.
[reply] 12

[ask] Supply measured Binding to 1 nM KDR, % of 2′D5-PR4 (designed binder, in vitro translated) VSDVPRDLEVVAATPTSLLISWRHPHFPTRYYRITYGETGGNSPVQEFTVPLQPPTATISGLKPGVDYTITVYAVTVAWNDHMLMTPISINYRT in your reply.
[reply] 11

[ask] Supply measured Binding to 1 nM KDR, % of 4C4 PR3 (designed binder, in vitro translated) EVVAATPTSLLISWRHPHFPTRYYRITYGETGGNSPVQEFTVPLQPPTATISGLKPGVDYTITVYAVTVAQDDHELFTPISINYRT in your reply.
[reply] 10

[ask] Supply measured Binding to 1 nM KDR, % of 3G10 PR3 (designed binder, in vitro translated) EVVAATPTSLLISWRHPHFPTRYYRITYGETGGNSPVQEFTVPLQPPTATISGLKPGVDYTITVYAVTVVHNGHEILTPISINYRT in your reply.
[reply] 10
